SYSTEM: bovine serum albumin (Bos taurus, UniProt P02769)
Sequence (P02769 whole entry): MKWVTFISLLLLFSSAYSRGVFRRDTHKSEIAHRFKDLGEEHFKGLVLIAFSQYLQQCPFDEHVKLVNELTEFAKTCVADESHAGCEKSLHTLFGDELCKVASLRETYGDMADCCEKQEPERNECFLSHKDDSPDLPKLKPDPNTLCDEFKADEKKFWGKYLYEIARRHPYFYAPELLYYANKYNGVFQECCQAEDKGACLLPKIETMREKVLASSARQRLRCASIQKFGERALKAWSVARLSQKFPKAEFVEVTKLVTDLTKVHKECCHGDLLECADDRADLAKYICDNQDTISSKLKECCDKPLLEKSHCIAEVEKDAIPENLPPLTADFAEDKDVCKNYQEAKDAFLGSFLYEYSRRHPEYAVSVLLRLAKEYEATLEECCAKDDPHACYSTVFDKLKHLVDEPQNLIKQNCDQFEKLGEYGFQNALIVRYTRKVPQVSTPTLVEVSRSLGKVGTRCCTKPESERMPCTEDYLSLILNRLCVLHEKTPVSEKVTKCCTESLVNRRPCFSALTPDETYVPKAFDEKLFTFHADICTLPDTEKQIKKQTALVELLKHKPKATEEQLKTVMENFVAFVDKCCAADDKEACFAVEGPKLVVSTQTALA
ASSAY COMMENT: Inhibition of bovine serum albumin at 1 uM by SPR analysis relative to control
RUN CONDITIONS: cattle
// reported inhibition at 1 µM for each item listed
Field format: number, assumed %, no unit text.

{"SMILES STR": "CO[C@@]12[C@H](COC(N)=O)C3=C(C(=O)C(C)=C(N)C3=O)N1C[C@@H]1N[C@@H]12", "inhibition at 1 µM, %": 94}
{"SMILES STR": "COc1cccc2c1C(=O)c1c(O)c3c(c(O)c1C2=O)C[C@@](O)(C(=O)CO)C[C@@H]3O[C@H]1C[C@H](N)[C@H](O)[C@H](C)O1", "inhibition at 1 µM, %": 87}

Request: Query: inhibition at 1 µM; subject: CC[C@@]1(O)C(=O)OCc2c1cc1n(c2=O)Cc2cc3ccccc3nc2-1
Result: 98

Origin of the recorded values: ChEMBL document CHEMBL5537139
